# subjectOfTest: human α4β2-nAChR (Homo sapiens, UniProt P17787+P43681)
# Sequence (P43681 29-627 limits assumed): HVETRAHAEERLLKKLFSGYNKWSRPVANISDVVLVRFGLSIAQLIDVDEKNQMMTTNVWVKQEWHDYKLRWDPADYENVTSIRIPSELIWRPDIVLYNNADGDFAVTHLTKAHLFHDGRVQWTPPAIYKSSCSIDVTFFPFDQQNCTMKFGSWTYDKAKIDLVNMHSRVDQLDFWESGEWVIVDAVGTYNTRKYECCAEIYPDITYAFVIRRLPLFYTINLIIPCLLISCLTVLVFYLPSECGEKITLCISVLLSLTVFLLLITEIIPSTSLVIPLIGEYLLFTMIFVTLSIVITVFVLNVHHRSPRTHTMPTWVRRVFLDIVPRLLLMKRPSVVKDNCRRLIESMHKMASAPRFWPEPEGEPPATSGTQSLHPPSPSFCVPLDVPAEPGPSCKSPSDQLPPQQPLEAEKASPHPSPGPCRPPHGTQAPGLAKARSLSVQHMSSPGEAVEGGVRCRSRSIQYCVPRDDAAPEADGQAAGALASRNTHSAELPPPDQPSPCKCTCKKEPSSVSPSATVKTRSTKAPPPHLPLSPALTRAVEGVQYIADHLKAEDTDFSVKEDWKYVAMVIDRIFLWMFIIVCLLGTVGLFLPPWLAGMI
# Sequence (P17787 26-502): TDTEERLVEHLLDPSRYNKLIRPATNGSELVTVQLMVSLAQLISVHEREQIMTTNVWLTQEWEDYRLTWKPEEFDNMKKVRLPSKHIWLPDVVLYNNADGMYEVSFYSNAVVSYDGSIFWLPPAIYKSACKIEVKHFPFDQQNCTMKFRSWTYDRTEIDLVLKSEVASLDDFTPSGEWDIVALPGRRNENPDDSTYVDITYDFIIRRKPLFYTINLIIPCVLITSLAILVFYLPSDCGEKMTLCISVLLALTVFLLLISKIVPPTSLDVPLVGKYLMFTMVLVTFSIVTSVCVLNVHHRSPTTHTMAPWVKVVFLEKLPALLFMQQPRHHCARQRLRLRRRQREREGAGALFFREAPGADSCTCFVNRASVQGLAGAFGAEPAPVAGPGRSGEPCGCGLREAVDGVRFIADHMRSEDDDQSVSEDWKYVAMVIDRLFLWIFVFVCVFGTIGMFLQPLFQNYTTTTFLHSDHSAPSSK
# assayOverview: cell-based
# reportedConditions: average IC50 across all time-points, averaged over 5-30 min reads; nicotine at EC90
measuredProperty: IC50 (µM)
Response body: numeric value in µM, unit text excluded.

# value of IC50, human α4β2-nAChR (Homo sapiens, UniProt P17787+P43681), item C[N+](C)(C)CCCCCC[N+](C)(C)C = 65.8

The molecule CNC1(C)C2CCC(C2)C1(C)C (centres unmarked) , tested on human α4β2-nAChR (Homo sapiens, UniProt P17787+P43681), showed IC50 of 1.21

----------
# subjectOfTest: human α4β2-nAChR (Homo sapiens, UniProt P17787+P43681)
# assayOverview: cell-based
# reportedConditions: IC50 (α4β2), Fig. 2D, in the presence of 500 nM nicotine (EC90); subtype comparison
measuredProperty: IC50 (nM)
Field: numeric (nM). Do not append units.

IC50 recorded for this compound, CNC1(C)C2CCC(C2)C1(C)C (stereo not shown) , is 537

----------
# subjectOfTest: human α4β2-nAChR (Homo sapiens, UniProt P17787+P43681)
# assayOverview: cell-based
# reportedConditions: IC50, 25 min incubation; in the presence of 500nM of nicotine
Provide the recorded IC50 for the entries that follow.
Answer format: value, then unit.

Looking up CNC1(C)C2CCC(C2)C1(C)C (centres unmarked) , I see its IC50 listed as 0.983 µM

Entry C[N+](C)(C)CCCCCC[N+](C)(C)C — recorded IC50 = 38.9 µM

----------
# subjectOfTest: human α6/3β2β3-nAChR (Homo sapiens, UniProt P17787+P32297+Q05901+Q15825)
# Construct: expressed in transfected cells
# Sequence (Q15825+P32297 fused with the stated changes): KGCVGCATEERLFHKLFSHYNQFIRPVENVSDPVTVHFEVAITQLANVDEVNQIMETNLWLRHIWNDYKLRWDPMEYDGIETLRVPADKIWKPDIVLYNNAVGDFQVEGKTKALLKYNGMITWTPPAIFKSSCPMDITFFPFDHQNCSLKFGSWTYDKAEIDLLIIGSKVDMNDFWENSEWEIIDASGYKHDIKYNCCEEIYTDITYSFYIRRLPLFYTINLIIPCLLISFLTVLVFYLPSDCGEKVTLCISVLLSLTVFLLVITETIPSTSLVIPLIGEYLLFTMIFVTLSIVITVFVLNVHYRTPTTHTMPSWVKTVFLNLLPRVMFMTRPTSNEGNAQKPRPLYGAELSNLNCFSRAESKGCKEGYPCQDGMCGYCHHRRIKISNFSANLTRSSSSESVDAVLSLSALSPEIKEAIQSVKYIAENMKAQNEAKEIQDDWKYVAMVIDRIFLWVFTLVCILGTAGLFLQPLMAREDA
# Sequence (P17787 26-502): as the sequence (P17787 26-502) above
# Sequence (Q05901 22-458): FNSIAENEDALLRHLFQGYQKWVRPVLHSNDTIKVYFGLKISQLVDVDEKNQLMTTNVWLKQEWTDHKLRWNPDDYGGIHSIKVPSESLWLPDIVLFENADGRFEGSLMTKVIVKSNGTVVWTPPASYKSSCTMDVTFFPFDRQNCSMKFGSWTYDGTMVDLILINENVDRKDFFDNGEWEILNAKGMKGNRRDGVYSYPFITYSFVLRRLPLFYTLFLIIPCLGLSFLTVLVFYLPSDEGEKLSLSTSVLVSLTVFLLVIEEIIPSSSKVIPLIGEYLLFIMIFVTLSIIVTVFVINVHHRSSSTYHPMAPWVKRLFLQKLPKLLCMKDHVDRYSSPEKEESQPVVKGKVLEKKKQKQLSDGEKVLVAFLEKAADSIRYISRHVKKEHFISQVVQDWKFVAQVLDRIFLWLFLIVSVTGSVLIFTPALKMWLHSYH
# assayOverview: membrane potential dye assay, SH-EP1-α6/3β2β3-nAChR cells
# Format: cell-based
# reportedConditions: nicotine at EC90; read-out: average IC50, comparison across subtypes
# Protocol: Concordance between replicates was assessed using linear regression.
measuredProperty: pIC50
Note: pIC50 values are expressed as the negative base-10 logarithm of concentration in M.

Form field, pIC50 with human α6/3β2β3-nAChR (Homo sapiens, UniProt P17787+P32297+Q05901+Q15825), item CNC1(C)C2CCC(C2)C1(C)C (stereo not shown) : 5.78

----------
For each record, write down the corresponding pIC50.
# subjectOfTest: human α4β2-nAChR (Homo sapiens, UniProt P17787+P43681)
# assayOverview: cell-based
# reportedConditions: IC50, 10 min incubation; in the presence of 500nM of nicotine
Please treat pIC50 as minus the base-10 logarithm of the molar concentration.

The compound listed as C[N+](C)(C)CCCCCC[N+](C)(C)C has a reported pIC50 of 4.00

pIC50 in this record for CNC1(C)C2CCC(C2)C1(C)C (centres unmarked) : 5.96

Origin of values: paper PMC8816891
